experiment: yeast display, Sf9 membrane polyspecificity reagent, FACS + sequencing; frameworks hold sequencing errors
quantity.name: polyreactivity (PSR sort gate)

{"biopolymer.sequence": "QVQLVESGGGLVQAGGSLRLSCAASGSIFYFNAMGWYRQAPGKERELVAAISTSGGSTYADSVKGRFTISRDNAKNTVYLQMNSLKPEDTAVYYCAADYLTSRSRTFDYWGQGTQVTVSS", "polyreactivity (PSR sort gate)": "low polyreactivity"}
{"biopolymer.sequence": "QVQLVESGGGLVQAGGSLRLSCAASGFTFRRYAMGWYRQAAGKERELVASNSWRGGTTYYADSVKGRFTISRDNAKNTVYLQMNSLKPDDTAVYYCARGAATPPGYYSSGQGTQVTVSS", "polyreactivity (PSR sort gate)": "low polyreactivity"}
{"biopolymer.sequence": "QVQLVESGGGLVKAGGSLRLSCAASGRIFKYNAMGWYRQAPGKERELVAVITSGGSTYYADSVKGRFTISRDNAKNTVYLQMNSLKPEDTAVYYWGQGTQVTVSS", "polyreactivity (PSR sort gate)": "low polyreactivity"}
{"biopolymer.sequence": "QVQLVESGGGLVQAGGSLRLSCAASGSTISINALGWSRQAPGKERELVAAITGGDTNTYYADSVKGRFTISRDTAKNTVYLLMNSLKPEDTAVYYCNARIYDYAGAGTWSYDSWGQGTQVTVSS", "polyreactivity (PSR sort gate)": "low polyreactivity"}

# evaluate next
Prompt: Which polyreactivity (PSR sort gate) value belongs to QVQLVESGGGLVQAGGSLRLICAASGFIFDYNTMGWYRPAPGKERELVAGITSGGSTNYADSVKGRFTISRDNAKNTVYLQMNSLKPEDTAVYYCATVDDEYYGYDYWGQGSQVTVSS ?
Response: low polyreactivity

====

experiment: yeast display, Sf9 membrane polyspecificity reagent, FACS + sequencing; frameworks hold sequencing errors
quantity.name: polyreactivity (PSR sort gate)

Reference set, count: 5
{"biopolymer.sequence": "HVQLVESGGGLVQAGASLRLSCAASGSTFSTYGMGCSRQAPGKVRELVADISDSTGSTYYADSVKGRFTISRDNAKYTVYLQMNSLKPEDNAVYYCAADSGEPSWGYDYWGQGTQVTVSS", "polyreactivity (PSR sort gate)": "low polyreactivity"}
{"biopolymer.sequence": "QVQLVDSGGGIVQAGGSLRVSCAASGRTFWYYTMGWYIQAPGKERELVAAITSGGSKYYSDSVKGRFTISRDNAKNTVYLQMISLNPEDTAVYYCAAYLLPAYSRISNDYWGQGTQVTVSS", "polyreactivity (PSR sort gate)": "high polyreactivity"}
{"biopolymer.sequence": "QVQLVESGGGLVQAGGSLRLSCAASGLIFSYYPMGWYRQAPGKERELVAAITGSGGTTYYADSVKGRFTISRDNAKNTVYLQMNSLKPEDTAVYYCATSPPEVWQRWYREYDYWGQVTQVTVSS", "polyreactivity (PSR sort gate)": "low polyreactivity"}
{"biopolymer.sequence": "QVQLVESGGGLVQAGGSIRLSCAASGRIFRYYHMGWYRQAPGKERELVARISSTGRTYADSVKGRFTISRDNAKNSVYLQMYSLKPEDTAVYFCAALFHTRGHSKYDYWGQGTQVTVSS", "polyreactivity (PSR sort gate)": "high polyreactivity"}
{"biopolymer.sequence": "QVQLVESGGGLVQSGGSLRLSCAASGITSHPYDMGWSRQAPGKERELVAVITSGGSTSYADSVKGRFTISRDNAKNTVYLQMNRLKPEDTAVYYCNADWFTPAQPWYRYFIRYDYWGQGTEVTVSS", "polyreactivity (PSR sort gate)": "low polyreactivity"}

# batch size: 7; output polyreactivity (PSR sort gate) per entry
1. QVQLVESGGGLVQAGGSLRLRCASSGSIFHRNAMGWYRQAPGKERELVATITSNGGSTYYADSVKGRFTISRDNAKNTVFLHMNRLKPEDTAVYFCARKYRSPISALLTGDYWGQGTEVTVSS
2. QVQLVESVGGLVQAGCTLPLSCAASGLIFYLYAMGWYRQATGKERELVARISRGGSTNYADSVKGRFTISRDNAKNTVYLQMNSLNPDDTAVYYCAADWFFSLGEMYYWGQGTQVTVSS
3. QVQLVESGGGLVQAGGSLRLSCAASGSTFYPYAMGWYRQAPGKERELVAAITSSGGSTYYADSVKGRFTISRDNAKNTVYLQMNSLKPEDSAVYYCAKLHVPPVHYDYWGQGTQVTVSS
4. QVQLVESGGGLVQAGGSLRLSCAASGSIFNYYAMGWNRQAPVKETEFVADISGSGSSTYYADSVKGRFTISRDNAKNTVYLQMNSLKPEDTAVYYCIAEYYWGVGYYPYSDYGYWGQGTQVTVSS
5. QVQLVESGGGLVQAGGSLRLICAASGSTFNYNAMGSSRQAPGKERELVAAISQTTSRTYYADSVKGRFTISRDNAKNTVYLQMNSLKPEDTAVYYCATKRWTRDRQRPRTQYYLFYYWGQGTQVTVSS
6. QVQLVESGGGLVQAGGSLRLSCAASGRIFRYYAMGWYRPAPGKERELVAGISSRGGSTYYADSVKGRFTISRDNAKNTVYLQMNSLKPEDTAVYYCAASPFHTVTPYGVVGRYDYWGQGTQVTVSS
7. QVQLVESGGGSVQAGGSLRLSCAASGRTFVRYAMGWYRQAPGKERELVAAITWSGGSTYYADSVKGRFTISRDNAKNTVYLQMNSLKPEDTAVFDCAAYPVQWGSLYDYWGQGTQVTVSS

Response:
1. low polyreactivity
2. low polyreactivity
3. low polyreactivity
4. low polyreactivity
5. high polyreactivity
6. high polyreactivity
7. high polyreactivity

# batch size: 2; output polyreactivity (PSR sort gate) per entry
1. QVQLVESGGGLVQAGGSLRLSCAASGFIDAYTMGWYRPAPGKERELVAAITWSGGRTSYADSVKGRFTISRDTAKNTVYLQMNSLKPEDTAGYYCAKDVTPYSPDDDYWGQGTQVTVSS
2. QVQLVESGGGLVQAGGSLRLSCAASGRIIRAYDMGWYRQAPGKERELVAVIRYRGGTTYYADSVKGRFTISRDNAMNTVYLQMYSLKPEDTAVYYCATEDNYHWWYTGVSYGEHDYLGQGTQVTVSS

Response:
1: low polyreactivity; 2: low polyreactivity

====

assay: yeast display, Sf9 membrane polyspecificity reagent, FACS + sequencing; frameworks hold sequencing errors
quantity.name: polyreactivity (PSR sort gate)

{"biopolymer.sequence": "QVQLVESGGGLVQAGGSLRLSCAASGFIFTSYDMGWYRQAPWKEREFVAAISWSGDRTYYADSVKGRFTISRDYAKNTVYLQMNSLKPEDTAVYYCAADRSIRRYYGYDYWGQGTQVTVSS", "measured.result": "high polyreactivity"}
{"biopolymer.sequence": "QVQLVESGGGLVQAGGSLRLSCAASGFTFGDYVMGWYRQAPGKERELVAAITTSGTRTSYADSVKGRFTISRDNAKNTVYLQMNSLKPEDTAVYYCAAEHTNYYYFWQAHYYWGQGTQVTVSS", "measured.result": "high polyreactivity"}
{"biopolymer.sequence": "QVKLVESGGGLVQAGGSLRLSCAASGFTFSYYAMGWYRQAPGKERELVAAISYSGSATYYADSVKVRFTISRDNAKNTVYLQLNSLIPEDTAVYYCNARGATRGLTAYTYDSWGQGTQVTVSS", "measured.result": "high polyreactivity"}
{"biopolymer.sequence": "QVQLVESGGGLVQAGGSLRLSCAASGFIFQPYAMGWYRPAPGKERELVAGITGSGGNTYYADSVKGRFTISRDNAKNTVYLQMNSLKPEDTAVYYCAARRHIFLLIIWSGRVDYWGQGTEVTVSS", "measured.result": "low polyreactivity"}
{"biopolymer.sequence": "QVQLVESGGGLVQAGGSLRLSCAASGFTFNYYAMGWYRQAPGKEREFVAAISYGGGDTYYADSVKGRFTISRDNAKNTVYLQMNSLKPEDTAVYYCNARFRKRAYRYDYWGQGTLVTVSS", "measured.result": "high polyreactivity"}
{"biopolymer.sequence": "QVQLVESGGGIVQAGGSLRLSCAASGSIFYHNAMGWYRQAPGKERELVAAITGSGGSTYYADSVKGRFTISRDNAKNTVYLQMNSLKPEDTAVYYCAADGYTKWWISWGYDYWGQGTQVTVSS", "measured.result": "low polyreactivity"}

# evaluate next
Prompt: Which polyreactivity (PSR sort gate) value belongs to QVQLVESGGGLVQAGGSLRLSFAASGRTFYQYGQGWYRQAPGKERELVAAISDSGGGTYYADSVKGRFTFSRDNAKNTVYLQMNSLIPEDTAVYYCAATYVGPRRRYYYWGQGTQVTVSS ?
Response: high polyreactivity

====

assay: yeast display, Sf9 membrane polyspecificity reagent, FACS + sequencing; frameworks hold sequencing errors
quantity.name: polyreactivity (PSR sort gate)

{"biopolymer.sequence": "QVQLQESGGGQVQAGGSLRLSCAASGTISPLPAMGWYRQAPGKEREFVAGIDTGAITNYADSVKGRFTISRDNAKNTVYLQMISLKPEDTAVYYCAVFPAAYDYYERYYTYWGQGTQVYVSS", "measured.result": "low polyreactivity"}
{"biopolymer.sequence": "QVQLVESGGGLVQAGGSLRLSCAASVFTFTVNTMGWYRQAPGKERELVAANSNTGSTKYADSVKGRFTISRDKAKNTLYLQMNSLKPEDTAVFYCAAEPGYYSRPDYRVYRVYYWGQGTQVTVSS", "measured.result": "high polyreactivity"}
{"biopolymer.sequence": "QVQLVESGAGLLQAGGSLRISCAASGLTFKIIAMGWYRQAPGKERELVAAISSGTSTNYADSVKGRFTISRDNAKITVYLQMNSLKPEDTAVYYCAARGFWGVAYRYYYWGQGTQVTLSS", "measured.result": "high polyreactivity"}
{"biopolymer.sequence": "QVQLVESGGGLVQAGGSIRLSCAASGSIFSWYAMGWYSQAPGKERELVAAITSDGGTNYADSVKGRFTISRDNAMNTVYLQMNTLKPEDTAVYYCAADYWYSWRRSHYAHRYGYWGQGTQVTVSS", "measured.result": "low polyreactivity"}
{"biopolymer.sequence": "QVQLVESGGGLVQAGGSLRLSCAASGRIFGINAMGWYRQAPGKERELVASIDGGGSKNYADSVKGRFTISRDNAKNTVYLQMNSLKPEDTAVYYCAKERSEYRSRHQAYRYDYWGQGTQVTVSS", "measured.result": "low polyreactivity"}

Prompt: Which polyreactivity (PSR sort gate) value belongs to QVQLVESGGGLVQAGGSLRLSCAASGSIFGHNTMGWYRPAPGKERELVAAITWNGGRTYYADSVKGRFTISRDNAMNTVYLQMNSLKPEDTAVYYCNAVVKTYAYKAHRYPSTRLNYWGQGTQVTVSS ?
Response: high polyreactivity
